Entry source: the METLIN SMRT retention time set (Domingo-Almenara et al. 2019)

Reported RP-LC retention time is given for each of the following compounds.
# assay.details: gradient 5% acetonitrile 3 min, to 50% in 2 min, to 85% in 15 min, held 3 min, 100 µL/min
# applied.conditions: column: Zorbax Extend-C18 2.1 x 50 mm; eluents: water / acetonitrile, 0.1% formic acid
Just the number in s, nothing appended.

Cc1cc2c(c(C#N)c1C)NC=NC2C (stereo not given)    641
CC(=O)c1cccc(Nc2c(C(=O)N3CCCC3)cnc3nc(C)ccc23)c1    587
Cc1ccc(-c2cc3c4nnc(SCC(=O)Nc5cccc(C(F)(F)F)c5)n4ccn3n2)cc1    1040

In one line, give reported RP-LC retention time of the entry COC(=O)c1ccc2c(=O)n(-c3cc(OC)cc(OC)c3)c(N3CCCCCC3)nc2c1 .
1220

In one line, give reported RP-LC retention time of the entry CCC(=O)N1CCc2cc(N3CC(C(=O)Nc4cccc(OC)c4)CC3=O)ccc21 (stereo not given) .
750

----------
# assay.details: gradient 5% acetonitrile 3 min, to 50% in 2 min, to 85% in 15 min, held 3 min, 100 µL/min
# applied.conditions: column: Zorbax Extend-C18 2.1 x 50 mm; eluents: water / acetonitrile, 0.1% formic acid
We label by threshold. Values of RP-LC retention time strictly beneath 700 s are 1.0. Values of 700 s and up are 0.0.

Answered cases to consult:
CC(C)n1cc(C#N)c(N)n1    1.0
COc1ccc(NC(C)=O)cc1NS(=O)(=O)C1CC1    1.0
CCNC(=O)N1CCC(c2noc(-c3ccncc3)n2)C1 (stereo unspecified)    1.0

Consider now this further compound.
Find out if reported RP-LC retention time for Cn1c(=O)c(N2CCN(C(=O)C3(c4ccccc4)CC3)CC2)nc2ccccc21 is less than 700 s
0.0

----------
# assay.details: gradient 5% acetonitrile 3 min, to 50% in 2 min, to 85% in 15 min, held 3 min, 100 µL/min
# applied.conditions: column: Zorbax Extend-C18 2.1 x 50 mm; eluents: water / acetonitrile, 0.1% formic acid
Param threshold (900 s) applies to RP-LC retention time; output criterion met when value >= threshold, criterion not met when value < threshold.

CN(CCNC(=O)Cn1c2ccccc2c2cnn(C)c(=O)c21)Cc1ccccc1    criterion not met

Is the recorded value of RP-LC retention time equal to or greater than 900 s for this compound? Cn1cnc2c(NCc3ccccc3)nc(NCCO)nc21
criterion not met

Is the recorded value of RP-LC retention time equal to or greater than 900 s for this compound? Cc1ccn2cc(-c3ccc(NS(=O)(=O)c4cc(C)c(C)cc4C)cc3)nc2n1
criterion not met

Is the recorded value of RP-LC retention time equal to or greater than 900 s for this compound? Cc1ccc(C(=O)NCCc2cn3ccsc3n2)cc1[N+](=O)[O-]
criterion not met

Is the recorded value of RP-LC retention time equal to or greater than 900 s for this compound? CCc1nc2cc(-c3noc(-c4ccccc4F)n3)ccc2o1
criterion met

Is the recorded value of RP-LC retention time equal to or greater than 900 s for this compound? CCOc1ccc(NC(=O)Cn2c(N3CCOCC3)nc(CC)cc2=O)cc1
criterion not met

----------
Reported RP-LC retention time is given for each of the following compounds.
# assay.details: gradient 5% acetonitrile 3 min, to 50% in 2 min, to 85% in 15 min, held 3 min, 100 µL/min
# applied.conditions: column: Zorbax Extend-C18 2.1 x 50 mm; eluents: water / acetonitrile, 0.1% formic acid
Just the number in s, nothing appended.

Take a look at these entries with their results.
Cc1ccc(N2CC(C(=O)N3CCCC3)CC2=O)cc1 (stereo not given)    640
CCOc1ccccc1CNC(=O)C1CCN(S(=O)(=O)c2cn(C(C)C)cn2)CC1    779
COc1cccc(-c2nc(C3CCN(S(=O)(=O)c4ccc(F)cc4)CC3)no2)c1    1100
COc1ccc(CNC(=O)NC2CCN(c3ccc(C)c(C)c3)C2=O)cc1 (stereo not given)    793

Switching to the query record.
In one line, give reported RP-LC retention time of the entry O=C(NCC1CCN(Cc2ccccc2F)CC1)C1CCN(c2ccc3nncn3n2)CC1 .
584

----------
# assay.details: gradient 5% acetonitrile 3 min, to 50% in 2 min, to 85% in 15 min, held 3 min, 100 µL/min
# applied.conditions: column: Zorbax Extend-C18 2.1 x 50 mm; eluents: water / acetonitrile, 0.1% formic acid
Reported RP-LC retention time is given for each of the following molecules.
Just the number in s, nothing appended.

In one line, give reported RP-LC retention time of the entry O=C1C[C@@H]2OCC=C3C[N+]4([O-])CC[C@]56c7ccccc7N1[C@H]5[C@H]2[C@H]3C[C@@H]64 (stereo not given in full) .
639

In one line, give reported RP-LC retention time of the entry Cc1noc(C)c1Cc1c(C(=O)N2CCC3(CCC3O)CC2)noc1C (stereo not given) .
680

----------
# assay.details: gradient 5% acetonitrile 3 min, to 50% in 2 min, to 85% in 15 min, held 3 min, 100 µL/min
# applied.conditions: column: Zorbax Extend-C18 2.1 x 50 mm; eluents: water / acetonitrile, 0.1% formic acid
recorded.endpoint: RP-LC retention time (s)
Just the number in s, nothing appended.

Take a look at these entries with their results.
CC(C)CCN1CCC(N2CCN(S(=O)(=O)Cc3cccc(Cl)c3)CC2)C1=O (stereo not given)    699
CCC1CCCCN1C(=O)c1cnc2nc(C)ccc2c1Nc1ccccc1 (stereo not given)    650
COc1ccc2c(c1)C1(CCN(C(=O)NCc3ccc(C)cc3)C1)C(=O)N2 (stereo not given)    725
CCc1noc2nc(C)n(CC(=O)NCCc3ccccc3)c(=O)c12    800
COc1ccccc1OCCNC(=O)c1ccc2c(=O)n(-c3ccccc3)c(N3CCCC3)nc2c1    834

In one line, give reported RP-LC retention time of the entry CCOc1ccc(N2CC(NC(=O)C(=O)c3c[nH]c4ccccc34)CC2=O)cc1 (stereo not given) .
791

In one line, give reported RP-LC retention time of the entry CC(=O)Nc1ccc(-c2nnc3n2CCCC3)cc1 .
563

In one line, give reported RP-LC retention time of the entry O=S(=O)(c1ccc(-c2noc(-c3ccc(Cl)cc3)n2)cc1)N1CCOCC1 .
1160

In one line, give reported RP-LC retention time of the entry CCCn1c(CCNC(=O)c2ccccc2)nc2cccnc21 .
633

In one line, give reported RP-LC retention time of the entry CN1CCn2cc(S(=O)(=O)Nc3ccc(Cl)cc3F)cc2C1=O .
723

----------
# assay.details: gradient 5% acetonitrile 3 min, to 50% in 2 min, to 85% in 15 min, held 3 min, 100 µL/min
# applied.conditions: column: Zorbax Extend-C18 2.1 x 50 mm; eluents: water / acetonitrile, 0.1% formic acid
recorded.endpoint: RP-LC retention time

O=C(Nc1ccc2c(c1)OCCO2)N1CCCn2nc(-c3cccs3)cc2C1    777 s
Cc1ccc2c(c1)c1c3n2CCN(c2nc(-c4ccccc4)cs2)C3CCC1 (centres undefined)    901 s
CCc1noc(CN2N=C(C(=O)N3CCC(C)CC3)S(=O)(=O)c3ccc(C)cc32)n1    954 s
CCCNC(=O)C1CCN(c2ccc(SCC(=O)Nc3cccc(C)c3C)nn2)CC1    642 s
CN1C(=O)CCS(=O)(=O)C1c1ccc(Cl)cc1 (centres undefined)    759 s

In one line, give reported RP-LC retention time of the entry Cc1ccc(-n2c(=O)c3c(cc(C)n3C)n(CC(=O)N3CCc4ccccc43)c2=O)cc1 .
928 s

In one line, give reported RP-LC retention time of the entry CCOC(=O)C1=C(CN2CCN(CC)CC2)NC(=O)NC1c1ccccc1Cl (centres undefined) .
571 s

In one line, give reported RP-LC retention time of the entry Cc1noc(-c2nn(C)c3c2CN(C(=O)NCc2ccccc2)CC3)n1 .
761 s

In one line, give reported RP-LC retention time of the entry CCOC(=O)c1ccc(NC(=O)CC2COc3ccccc3NC2=O)cc1 (centres undefined) .
596 s

----------
# assay.details: gradient 5% acetonitrile 3 min, to 50% in 2 min, to 85% in 15 min, held 3 min, 100 µL/min
# applied.conditions: column: Zorbax Extend-C18 2.1 x 50 mm; eluents: water / acetonitrile, 0.1% formic acid
recorded.endpoint: RP-LC retention time (s)
Just the number in s, nothing appended.

CCN1C(=O)COc2ccc(-c3csc(NC(=O)c4ccccc4Br)n3)cc21    980
Cc1nc(-c2ccccc2F)sc1C(=O)N1CCCC1    880
O=C(Cc1ccccc1F)Nc1cnc(-c2cccnc2)nc1    652

Switching to the query record.
In one line, give reported RP-LC retention time of the entry CC1OC(O[C@H]2C[C@@H](O)[C@]3(CO)[C@H]4[C@H](O)C[C@]5(C)[C@@H](C6=CC(=O)OC6)CC[C@]5(O)[C@@H]4CC[C@]3(O)C2)C(O)C(O)C1O (some centres undefined) .
594
